- Assay System: Neu5Ac(a2-8)Neu5Ac(a2-3)[GalNAc(b1-4)]Gal(b1-4)Glc
- Assay Procedure: glycan array binding signal (z-score within array); higher = stronger binding
- Settings: glycan notation: IUPAC condensed, linker removed
Many of the other results were omitted from the sample, so the strongest signals are more common in it than they were.
Use True when the recorded glycan array binding signal (z-score) is no lower than -0.2; use False when it is lower.

{"columns": ["Binder", "Cat"],
 "data": [
  ["DGL (Dioclea grandiflora), P08902 (protein) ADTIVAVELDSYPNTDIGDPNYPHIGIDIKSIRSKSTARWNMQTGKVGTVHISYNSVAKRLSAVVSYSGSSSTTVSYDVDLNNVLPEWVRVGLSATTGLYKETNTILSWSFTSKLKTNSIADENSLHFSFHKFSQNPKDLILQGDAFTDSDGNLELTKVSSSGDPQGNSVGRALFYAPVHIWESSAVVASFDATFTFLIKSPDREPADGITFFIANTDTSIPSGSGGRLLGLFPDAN", "True"],
  ["XCL (Xerocomus chrysenteron) (protein) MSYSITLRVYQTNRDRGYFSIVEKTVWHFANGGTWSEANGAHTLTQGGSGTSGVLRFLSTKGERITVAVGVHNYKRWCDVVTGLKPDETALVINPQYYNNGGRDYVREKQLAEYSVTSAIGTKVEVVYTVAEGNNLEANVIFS", "False"],
  ["CC1G-11630 (Coprinopsis cinerea), A8P462 (protein) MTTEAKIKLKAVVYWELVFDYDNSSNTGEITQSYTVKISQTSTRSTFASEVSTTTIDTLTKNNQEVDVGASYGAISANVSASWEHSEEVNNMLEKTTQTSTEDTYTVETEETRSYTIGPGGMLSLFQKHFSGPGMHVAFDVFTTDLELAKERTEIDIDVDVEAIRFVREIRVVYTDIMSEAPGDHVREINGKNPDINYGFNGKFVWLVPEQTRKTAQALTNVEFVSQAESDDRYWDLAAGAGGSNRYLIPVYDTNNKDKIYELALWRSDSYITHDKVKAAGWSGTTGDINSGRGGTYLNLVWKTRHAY", "True"],
  ["Arath Fbox (Arabidopsis thaliana), NP_178341.1 (protein) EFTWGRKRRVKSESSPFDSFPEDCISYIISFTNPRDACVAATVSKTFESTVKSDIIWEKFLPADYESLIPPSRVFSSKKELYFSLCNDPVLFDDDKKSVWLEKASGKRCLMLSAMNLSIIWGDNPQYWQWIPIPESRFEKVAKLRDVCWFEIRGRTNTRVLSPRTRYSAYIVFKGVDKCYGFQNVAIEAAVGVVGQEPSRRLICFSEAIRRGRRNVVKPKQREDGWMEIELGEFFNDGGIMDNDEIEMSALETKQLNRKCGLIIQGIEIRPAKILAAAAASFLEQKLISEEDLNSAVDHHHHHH", "False"]
]}

Proceed to the following item.
Decide: is the reported value of glycan array binding signal (z-score) for FBG2 (Homo sapiens), Q9NRD1 (protein) MDAPHSKAALDSINELPENILLELFTHVPARQLLLNCRLVCSLWRDLIDLMTLWKRKCLREGFITKDWDQPVADWKIFYFLRSLHRNLLRNPCAEEDMFAWQIDFNGGDRWKVESLPGAHGTDFPDPKVKKYFVTSYEMCLKSQLVDLVAEGYWEELLDTFRPDIVVKDWFAARADCGCTYQLKVQLASADYFVLASFEPPPVTIQQWNNATWTEVSYTFSDYPRGVRYILFQHGGRDTQYWAGWYGPRVTNSSIVVSPKMTRNQASSEAQPGQKHGQEEAAQSPYRAVVQIFPPPVTIQQWNNATWTEVSYTFSDYPRGVRYILFQHGGRDTQYWAGWYGPRVTNSSIVVSPKMTRNQASSEAQPGQKHGQEEAAQSPYRAVVQI equal to or greater than -0.2?
True
